- system name: canine FcRn complex (FcRn-alpha subunit and beta-microglobulin), His-tagged, biotin labeled (canine)
- assay comment: SPR (Biacore), biotin-FcRn captured on SA surface, IgG flowed over, pH 6, 15 C
quantity measured: Kd (nM)
Lab book: enter the figure in nM, no units written.

>>> val("canine IgGB (65) mAb with mutation Y436D (antibody, part only; not given: Variable domains, not shown: another chain or arm of the molecule) constant: ASTTAPSVFPLAPSCGSTSGSTVALACLVSGYFPEPVTVSWNSGSLTSGVHTFPSVLQSSGLYSLSSMVTVPSSRWPSETFTCNVAHPASKTKVDKPVPKRENGRVPRPPDCPKCPAPEMLGGPSVFIFPPKPKDTLLIARTPEVTCVVVDLDPEDPEVQISWFVDGKQMQTAKTQPREEQFNGTYRVVSVLPIGHQDWLKGKQFTCKVNNKALPSPIERTISKARGQAHQPSVYVLPPSREELSKNTVSLTCLIKDFFPPDIDVEWQSNGQQEPESKYRTTPPQLDEDGSYFLYSKLSVDKSRWQRGDTFICAVMHEALHNHDTQESLSHSPGK")
12.9

Now consider a different binder.
Query: Query (binder): canine IgGB (65) mAb with mutation D312R (antibody, part only; not given: variable domains of unnamed mAb, not shown: another chain or arm of the molecule) constant: ASTTAPSVFPLAPSCGSTSGSTVALACLVSGYFPEPVTVSWNSGSLTSGVHTFPSVLQSSGLYSLSSMVTVPSSRWPSETFTCNVAHPASKTKVDKPVPKRENGRVPRPPDCPKCPAPEMLGGPSVFIFPPKPKDTLLIARTPEVTCVVVDLDPEDPEVQISWFVDGKQMQTAKTQPREEQFNGTYRVVSVLPIGHQRWLKGKQFTCKVNNKALPSPIERTISKARGQAHQPSVYVLPPSREELSKNTVSLTCLIKDFFPPDIDVEWQSNGQQEPESKYRTTPPQLDEDGSYFLYSKLSVDKSRWQRGDTFICAVMHEALHNHYTQESLSHSPGK ; field requested: Kd
Response: 23.1
